All figures here come from the supplement of paper PMC11061612.

Tested on: GI-1 (Glioblastoma)
protocol: Bliss excess, mean over the matrix (fraction); higher = more synergy
propertyLabel: Bliss excess
One number for each entry.

Some entries whose results are on file:
COc1nnc2ccc(N3CCC(c4ccc(OCCN5CCN(C)C(=O)[C@H]5C)cc4)CC3)nn12 [AZD5153] + C=CCn1c(=O)c2cnc(Nc3ccc(N4CCN(C)CC4)cc3)nc2n1-c1cccc(C(C)(C)O)n1 [AZD1775] (first compound max 1 µM, partner max 1 µM) ... -0.0143
Cc1c2c(nn1C)CSCc1cc(n(C)n1)CSc1cc(c3ccccc3c1)OCCCc1c(C(=O)O)n(C)c3c-2c(Cl)ccc13 [AZD5991] + Cc1cc2ncnn2cc1Nc1ncc2c(n1)n(C1CCOCC1)c(=O)n2C [AZD7648] (first compound max 1 µM, 7x7, partner max 10 µM) ... 0.0021

Now turn to the next molecule.
What Bliss excess value was documented for this molecule, CC1(C)CCC(CN2CCN(c3ccc(C(=O)NS(=O)(=O)c4ccc(NCC5CCOCC5)c([N+](=O)[O-])c4)c(Oc4cnc5[nH]ccc5c4)c3)CC2)=C(c2ccc(Cl)cc2)C1 [Venetoclax] + Cn1cnc2c(F)c(Nc3ccc(Br)cc3Cl)c(C(=O)NOCCO)cc21 [Selumetinib] (first compound max 1 µM, 7x7, partner max 3 µM) ?
-0.0095

* * *

Test system: KINGS-1 (Low Grade Glioma)
protocol: combination Emax (second highest fraction inhibited in the dose matrix, 72 h); higher = more inhibition; extreme values may be limits of the assay
propertyLabel: combination Emax
Answers are plain numbers.

CC(=O)c1c(C)c2cnc(Nc3ccc(N4CCNCC4)cn3)nc2n(C2CCCC2)c1=O [Palbociclib] + Cn1cnc2c(F)c(Nc3ccc(Br)cc3Cl)c(C(=O)NOCCO)cc21 [Selumetinib] (first compound max 10 µM, 7x7, partner max 10 µM) ... 0.232

Now turn to the next compound.
Write down the reported combination Emax of Cc1c2c(nn1C)CSCc1cc(n(C)n1)CSc1cc(c3ccccc3c1)OCCCc1c(C(=O)O)n(C)c3c-2c(Cl)ccc13 [AZD5991] + CS(=O)(=O)CCNCc1ccc(-c2ccc3ncnc(Nc4ccc(OCc5cccc(F)c5)c(Cl)c4)c3c2)o1 [Lapatinib] (first compound max 1 µM, 7x7, partner max 10 µM) , test system: KINGS-1 (Low Grade Glioma).
0.215

* * *

For each of the compounds below, state its Bliss excess.
Test system: EBC-1 (Squamous Cell Lung Carcinoma)
protocol: Bliss excess, mean over the matrix (fraction); higher = more synergy
Answers are plain numbers.

NC1(C(=O)N[C@@H](CCO)c2ccc(Cl)cc2)CCN(c2ncnc3[nH]ccc23)CC1 [Capivasertib] + CC(C)n1c(=O)n(C)c2cnc3cc(F)c(-c4ccc(OCCCN5CCCCC5)nc4)cc3c21 [AZD1390] (first compound max 10 µM, 7x7, partner max 0.3 µM) ... -0.0046

Now turn to the next compound.
What Bliss excess value was documented for this compound, C[C@@H](c1ccc2nccn2c1)n1nnc2ncc(-c3cnn(C)c3)nc21 [Savolitinib] + CN(CC[C@H](CSC1=CC=CC=C1)NC2=C(C=C(C=C2)S(=O)(=O)NC(=O)C3=CC=C(C=C3)N4CCC(CC4)[C@H](C5=CC=CC=C5C6=CC=C(C=C6)Cl)O)S(=O)(=O)C(F)(F)F)CCO [AZD4320] (first compound max 1 µM, 7x7, partner max 1 µM) ?
-0.0067
